The origin of these recorded values is PubChem BioAssay (NCI).

# Tested on: A549 NSCLC
# test-details: NCI tumour cell line growth inhibition, 48 h
measurement-type: TGI

Problem: For the compound O=C1Nc2ccccc2N=CC1NC(=O)C(c1ccccc1)c1ccccc1 (stereo not drawn) , give its reported TGI.
Solution: > 100 µM

Problem: For the compound CC1(C)CC(=O)C(/C(=N/NC(=S)NN)C(=O)Nc2nc3ccc([N+](=O)[O-])cc3s2)C(=O)C1 , give its reported TGI.
Solution: > 100 µM

Problem: For the compound CC(C)C(C(=O)O)N1C(=O)c2ccccc2C1=O (stereo not drawn) , give its reported TGI.
Solution: > 100 µM

====

# Test system: SR leukemia
# test-details: NCI tumour cell line growth inhibition, 48 h
Hi there, I'd appreciate the recorded TGI for every entry that follows.

Problem: For the compound COC(=O)c1cc2c(cc1Cl)SC1=NN(C)C(N(C)C)N1S2(=O)=O (centres undefined) , give its reported TGI.
Solution: > 100 µM

Problem: For the compound CC12CCC(=O)N1c1ccc([N+](=O)[O-])cc1N2 (centres undefined) , give its reported TGI.
Solution: > 100 µM

Problem: For the compound O=C(N/N=C/c1ccc([N+](=O)[O-])cc1)Nc1ccc(C(=O)O)cc1 , give its reported TGI.
Solution: > 100 µM

Problem: For the compound COc1ccc(/C(Br)=C2\OC(=O)c3ccccc32)cc1 , give its reported TGI.
Solution: > 10 µM

====

# Test system: OVCAR-4 ovarian
# test-details: NCI tumour cell line growth inhibition, 48 h
Hi there, I'd appreciate the recorded TGI for every entry that follows.

Problem: For the compound O=C(O)Cc1cccnc1 , give its reported TGI.
Solution: > 100 µM

Problem: For the compound CCOC(=O)NNC(=O)NCc1cccc(CNC(=O)NNC(=O)OCC)c1 , give its reported TGI.
Solution: > 100 µM

Problem: For the compound COc1ccc(/C(Br)=C2\OC(=O)c3ccccc32)cc1 , give its reported TGI.
Solution: > 10 µM

====

Hi there, I'd appreciate the recorded TGI for every entry that follows.
# System: SF-539 CNS
# test-details: NCI tumour cell line growth inhibition, 48 h

Problem: For the molecule COC1C(O)C(CO)OC(OC2C(O)COC(OC3C(C)OC(OC4C(O[C@H]5CC[C@@]6(C)C(CC=C7[C@H]6CCC68C(=O)O[C@@](C)(CCCC(C)C)[C@H]6[C@@H](OC(C)=O)C[C@@]78C)C5(C)C)OCC(OS(=O)(=O)O)C4O)C(OC4OCC(O)C(O)C4O)C3O)C2O)C1O (stereo partly specified) , give its reported TGI.
Solution: 0.606 µM

Problem: For the molecule CC1=NN(c2nc(N)nc(/C(C#N)=C\c3csc([N+](=O)[O-])c3)n2)C(C)(C)C1 , give its reported TGI.
Solution: > 100 µM

Problem: For the molecule CC1(c2ccccc2Cl)C(C#N)C(=O)NC(=O)C1C#N (stereo unspecified) , give its reported TGI.
Solution: > 100 µM

Problem: For the molecule CC(C)(O)CNc1nc(Nc2ccnc(C(F)(F)F)c2)nc(-c2cccc(C(F)(F)F)n2)n1 , give its reported TGI.
Solution: 42.7 µM

Problem: For the molecule CC1=C(O)C2=C(C(=O)C1=O)[C@@H](C)CC[C@@H]2[C@@H](C)C/C=C/C(C)(C)O , give its reported TGI.
Solution: > 100 µM

Problem: For the molecule O=c1c2cc(S(=O)(=O)O)ccc2nc(COc2ccc(Oc3ccc(Cl)cc3Cl)cc2)n1-c1ccc(Oc2ccc(Cl)cc2)cc1Cl , give its reported TGI.
Solution: 32.3 µM

Problem: For the molecule O=C(NC1CCN(Cc2ccccc2)CC1)c1ccc(I)cc1 , give its reported TGI.
Solution: > 100 µM

Problem: For the molecule CCOP1(=O)CC(C)=C(Cl)C(O)C1 (stereo unspecified) , give its reported TGI.
Solution: > 100 µM

Problem: For the molecule CON(C)c1nc(N(C)OC)nc(N(C)OC)n1 , give its reported TGI.
Solution: > 10 µM

Problem: For the molecule C/C(=C\c1cnc(C)s1)[C@@H]1C[C@@H]2O[C@@H]2CCC[C@H](C)[C@H](O)[C@@H](C)C(=O)C(C)(C)[C@@H](O)CC(=O)O1 , give its reported TGI.
Solution: > 100 µM

Problem: For the molecule O=C(/C=C/c1cccc(O)c1)c1cccc(-n2cc(-c3ccccc3)[nH]c2=O)c1 , give its reported TGI.
Solution: 3.84 µM
